Tested on: Spermatozoa
Assay: Spermicidal activity in human semen assessed as induction of spermatozoa immotility by Sander-Cramer method
Assay type: functional
Calls of active or inactive are those of the source. The rule behind the calls is not given here.
observed-property: MEC

compound: COc1cc(/C=C/C(=O)C2(CCN3CCOCC3)CCOC2=O)ccc1O.O=C(O)C(O)C(O)C(=O)O (configuration not stated)
result-value: 0.5%

compound: CN(C)CCCC1(C(=O)/C=C/c2ccc(O)cc2)CCOC1=O.O=C(O)C(O)C(O)C(=O)O (configuration not stated)
result-value: 0.5%

compound: CC(=O)C1(CCN2CCCC2)CCOC1=O (configuration not stated)
result-value: inactive

compound: COc1cc(/C=C/C(=O)C2(CCCN(C)C)CCOC2=O)ccc1O.O=C(O)C(O)C(O)C(=O)O (configuration not stated)
result-value: 0.05%

compound: CCN(CC)CCC1(C(C)=O)CCOC1=O (configuration not stated)
result-value: inactive

Value of measured MEC for the entry CN(C)CCCC1(C(=O)/C=C/c2ccc(N(C)C)cc2)CCOC1=O.O=C(O)C(O)C(O)C(=O)O (configuration not stated) : 0.5%

The recorded MEC for O=C(/C=C/c1ccc(O)cc1)C1CCOC1=O (configuration not stated) is inactive

Entry CN(C)c1ccc(/C=C/C(=O)C2(CCN3CCOCC3)CCOC2=O)cc1.O=C(O)C(O)C(O)C(=O)O (configuration not stated) , MEC reported as 0.5%

The measured MEC associated with CC(=O)C1(CCN2CCOCC2)CCOC1=O (configuration not stated) reads inactive

The compound listed as CN(C)c1ccc(/C=C/C(=O)C2CCOC2=O)cc1 (configuration not stated) has a reported MEC of inactive

Looking up CC(=O)C1(CCCN(C)C)CCOC1=O (configuration not stated) , I found its MEC recorded as inactive

Kindly note the recorded MEC for O=C(/C=C/c1ccc(O)cc1)C1(CCN2CCOCC2)CCOC1=O.O=C(O)C(O)C(O)C(=O)O (configuration not stated) , which is 0.05%
